Assay: In vivo pharmacokinetic study in rats (i.v. or s.c.), FAC and payload in blood
Parameters: species or system rat
Settings: male, Sprague-Dawley, rat, whole blood, sc, 1 umol/kg, rat; subcutaneous dosing; unconjugated Compound V at 1 umol/kg; read-out: Payload AUC
property: AUC (µM·h)
Write the number in µM·h without appending the unit.

query: What does the record list as AUC for COc1ccc(C(=O)N2CCC3(CCN(CCc4ccc(-c5cc6c(-c7cc(F)cc(NC(=O)c8ccc(C(C)(C)O)cc8F)c7C)ncnc6[nH]5)cc4)CC3)CC2)cc1N1CCC(=O)NC1=O ?
result: 0.57

====

Assay: BTK FAC plasma stability assay, mouse plasma
Type: in vitro ADME
Settings: 24 h
property: % Release of degrader after 24 h mouse (%)
Write the number in % without appending the unit.

query: What does the record list as % Release of degrader after 24 h mouse for CCCCCCCCCCCN(C(=O)CCCCCCCCCC(=O)O)C(CCC(=O)NCCOCCOCCOCCOCCOCCOCCOCCOCCOCCOCCOCCOCCC(=O)N1CCN(CC(=O)OC(C)(C)c2ccc(C(=O)Nc3cc(F)cc(-c4ncnc5[nH]c(-c6ccc(CCN7CCC8(CC7)CCN(C(=O)c7ccc(OC)c(N9CCC(=O)NC9=O)c7)CC8)cc6)cc45)c3C)c(F)c2)CC1)C(=O)O (stereo not drawn) ?
result: 2.3

query: What does the record list as % Release of degrader after 24 h mouse for CCCCCCCCCCCN(C(=O)CCCCCCCCCC(=O)O)C(CCC(=O)NCCOCCOCCOCCOCCOCCOCCOCCOCCOCCOCCOCCOCCC(=O)NCC(=O)NCn1c(-c2ccc(CCN3CCC4(CC3)CCN(C(=O)c3ccc(OC)c(N5CCC(=O)NC5=O)c3)CC4)cc2)cc2c(-c3cc(F)cc(NC(=O)c4ccc(C(C)(C)O)cc4F)c3C)ncnc21)C(=O)O (stereo not drawn) ?
result: 0.1

--- query ---
query: What does the record list as % Release of degrader after 24 h mouse for CCCCCCCCCCCN(C(=O)CCCCCCCCCC(=O)O)C(CCC(=O)NCCOCCOCCOCCOCCC(=O)NCC(=O)OC(C)(C)c1ccc(C(=O)Nc2cc(F)cc(-c3ncnc4[nH]c(-c5ccc(CCN6CCC7(CC6)CCN(C(=O)c6ccc(OC)c(N8CCC(=O)NC8=O)c6)CC7)cc5)cc34)c2C)c(F)c1)C(=O)O (stereo not drawn) ?
result: 53.6

====

Overview of recorded % Release of degrader after 24 h dog for various molecules
Assay: BTK FAC plasma stability assay, dog plasma
Type: in vitro ADME
Conditions: 24 h
Write the number in % without appending the unit.

// worked examples, % Release of degrader after 24 h dog included
query: What does the record list as % Release of degrader after 24 h dog for CCCCCCCCCCCN(C(=O)CCCCCCCCCC(=O)O)C(CCC(=O)NCCOCCOCCOCCOCCOCCOCCOCCOCCOCCOCCOCCOCCC(=O)NCc1ccc(CC(=O)OC(C)(C)c2ccc(C(=O)Nc3cc(F)cc(-c4ncnc5[nH]c(-c6ccc(CCN7CCC8(CC7)CCN(C(=O)c7ccc(OC)c(N9CCC(=O)NC9=O)c7)CC8)cc6)cc45)c3C)c(F)c2)cc1)C(=O)O (stereo not drawn) [Example A23] ?
result: 0.8

query: What does the record list as % Release of degrader after 24 h dog for CCCCCCCCCCCN(C(=O)CCCCCCCCCC(=O)O)C(CCC(=O)NCCOCCOCCOCCOCCOCCOCCOCCOCCOCCOCCOCCOCCC(=O)NCc1ccc(C(=O)OC(C)(C)c2ccc(C(=O)Nc3cc(F)cc(-c4ncnc5[nH]c(-c6ccc(CCN7CCC8(CC7)CCN(C(=O)c7ccc(OC)c(N9CCC(=O)NC9=O)c7)CC8)cc6)cc45)c3C)c(F)c2)cc1)C(=O)O (stereo not drawn) [Example A14] ?
result: 0.1

query: What does the record list as % Release of degrader after 24 h dog for CCCCCCCCCCCN(C(=O)CCCCCCCCCC(=O)O)[C@@H](CCC(=O)NCCOCCOCCOCCOCCOCCOCCOCCOCCOCCOCCOCCOCCC(=O)NCC(=O)OC(C)(C)c1ccc(C(=O)Nc2cc(F)cc(-c3ncnc4[nH]c(-c5ccc(CCN6CCC7(CC6)CCN(C(=O)c6ccc(OC)c(N8CCC(=O)NC8=O)c6)CC7)cc5)cc34)c2C)c(F)c1)C(=O)O [Example A2] ?
result: 7.3

query: What does the record list as % Release of degrader after 24 h dog for CCCCCCCCCCCN(C(=O)CCCCCCCCCC(=O)O)[C@@H](CCC(=O)NCCOCCOCCOCCOCCOCCOCCOCCOCCOCCOCCOCCOCCC(=O)N(CCC(=O)OC(C)(C)c1ccc(C(=O)Nc2cc(F)cc(-c3ncnc4[nH]c(-c5ccc(CCN6CCC7(CC6)CCN(C(=O)c6ccc(OC)c(N8CCC(=O)NC8=O)c6)CC7)cc5)cc34)c2C)c(F)c1)CC(=O)O)C(=O)O [Example A24] ?
result: 5.9

Continuing:
query: What does the record list as % Release of degrader after 24 h dog for CCCCCCCCCCCN(C(=O)CCCCCCCCCC(=O)O)C(CCC(=O)NCCOCCOCCOCCOCCOCCOCCOCCOCCOCCOCCOCCOCCC(=O)NCCC(=O)OC(C)(C)c1ccc(C(=O)Nc2cc(F)cc(-c3ncnc4[nH]c(-c5ccc(CCN6CCC7(CC6)CCN(C(=O)c6ccc(OC)c(N8CCC(=O)NC8=O)c6)CC7)cc5)cc34)c2C)c(F)c1)C(=O)O (stereo not drawn) [Example A12] ?
result: 1.2

query: What does the record list as % Release of degrader after 24 h dog for CCCCCCCCCCCN(C(=O)CCCCCCCCCC(=O)O)C(CCC(=O)NCCOCCOCCOCCOCCOCCOCCOCCOCCOCCOCCOCCOCCC(=O)N[C@@H](C)C(=O)OC(C)(C)c1ccc(C(=O)Nc2cc(F)cc(-c3ncnc4[nH]c(-c5ccc(CCN6CCC7(CC6)CCN(C(=O)c6ccc(OC)c(N8CCC(=O)NC8=O)c6)CC7)cc5)cc34)c2C)c(F)c1)C(=O)O (stereo partly drawn) [Example A16] ?
result: 5

The origin of these recorded values is patent US20240216513A1.
